test system: human prostate cancer cell LNCaP-FGC; test: Prostate specific antigen (PSA) production inhibition in prostate cancer cell; format: cell-based; settings: 72 h, 1 μM compound, testosterone 1 ng/mL, three days, PSA in culture supernatant by ELISA, testosterone non-added group 100%, testosterone-added group 0%, read-out: PSA production Inhibitory rate (%) at 1 μM
inhibition at 1 µM for assorted molecules
Only the number, expressed in %, is required.

Cc1c(-c2ccc(C#N)cc2)cc(C2CC2)n1Cc1cnc(Cl)c(CO)c1 | 98
Cc1c(C#N)c(-c2ccc(C#N)cc2)c(C)n1Cc1cnc(Cl)c(C(O)C(F)(F)F)c1 (centres unmarked) | 94
Cc1c(C#N)c(-c2ccc(C#N)cc2)c(C)n1Cc1ccc(Cl)c(CO)c1 | 97
CCc1c(C#N)c(-c2ccc(C#N)cc2)c(C)n1Cc1cnc(Cl)c(CO)c1 | 95

# ---- query molecule ----
Q: Recorded inhibition at 1 µM for Cc1cc(-c2ccc(C#N)cc2)c(C)n1Cc1cnc(Cl)c(CO)c1 with human prostate cancer cell LNCaP-FGC, please?
A: 95

###

biological target: wild-type androgen receptor (AR) (Homo sapiens); test: AR binding inhibitory test (wild type); details: 1 μM compound, 3 nM miboleron, 4° C. for 3 hours, dextran/charcoal B/F separation; read-out: Inhibitory rate (%) at 1 μM, Wild type
Sequence (P10275 whole entry): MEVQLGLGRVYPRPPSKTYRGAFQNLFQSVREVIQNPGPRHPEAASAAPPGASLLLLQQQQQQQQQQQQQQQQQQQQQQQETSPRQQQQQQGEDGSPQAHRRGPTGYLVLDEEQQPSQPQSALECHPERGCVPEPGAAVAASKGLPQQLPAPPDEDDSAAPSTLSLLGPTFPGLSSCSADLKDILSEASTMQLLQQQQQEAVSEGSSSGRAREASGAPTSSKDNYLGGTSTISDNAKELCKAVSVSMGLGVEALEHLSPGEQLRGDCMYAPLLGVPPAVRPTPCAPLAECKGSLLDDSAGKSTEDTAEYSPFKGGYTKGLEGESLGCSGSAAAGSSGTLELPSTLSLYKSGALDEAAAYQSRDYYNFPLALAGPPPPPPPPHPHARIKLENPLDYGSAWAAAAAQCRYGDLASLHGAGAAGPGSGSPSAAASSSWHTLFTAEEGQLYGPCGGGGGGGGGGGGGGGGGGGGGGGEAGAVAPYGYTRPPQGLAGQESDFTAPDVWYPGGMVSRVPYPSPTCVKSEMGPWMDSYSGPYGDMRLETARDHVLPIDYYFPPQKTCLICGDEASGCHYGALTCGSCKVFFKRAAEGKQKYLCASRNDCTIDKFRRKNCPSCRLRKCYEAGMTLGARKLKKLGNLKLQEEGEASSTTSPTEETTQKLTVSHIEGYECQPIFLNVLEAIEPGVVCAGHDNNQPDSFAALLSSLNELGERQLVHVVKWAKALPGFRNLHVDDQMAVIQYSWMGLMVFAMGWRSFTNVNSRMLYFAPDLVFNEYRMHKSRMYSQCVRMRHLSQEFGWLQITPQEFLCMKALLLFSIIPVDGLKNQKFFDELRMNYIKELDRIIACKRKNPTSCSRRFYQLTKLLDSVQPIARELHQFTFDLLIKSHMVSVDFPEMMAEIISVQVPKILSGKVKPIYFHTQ
READOUT KIND: inhibition at 1 µM (%)
Only the number, expressed in %, is required.

Examples with answers:
Cc1cc(-c2ccc(C#N)cc2)c(C)n1Cc1cnc(Cl)c(CO)c1 | 86
Cc1c(-c2ccc(C#N)cc2)cc(C2CC2)n1Cc1cnc(Cl)c(CO)c1 | 30

Q: Any idea what its inhibition at 1 µM is? The molecule is Cc1c(-c2ccc(C#N)cc2)c(C#N)c(C2CC2)n1Cc1cnc(Cl)c(CO)c1
A: 98

Q: // repeat for CCc1c(C#N)c(-c2ccc(C#N)cc2)c(C)n1Cc1cnc(Cl)c(CO)c1 and report
A: 99

Q: // repeat for CCCc1c(C#N)c(-c2ccc(C#N)cc2)c(C)n1Cc1cnc(Cl)c(CO)c1 and report
A: 96
